- target-system: Luciferin 4-monooxygenase (Photinus pyralis) (UniProt P08659)
- Sequence (P08659 whole entry, looked up): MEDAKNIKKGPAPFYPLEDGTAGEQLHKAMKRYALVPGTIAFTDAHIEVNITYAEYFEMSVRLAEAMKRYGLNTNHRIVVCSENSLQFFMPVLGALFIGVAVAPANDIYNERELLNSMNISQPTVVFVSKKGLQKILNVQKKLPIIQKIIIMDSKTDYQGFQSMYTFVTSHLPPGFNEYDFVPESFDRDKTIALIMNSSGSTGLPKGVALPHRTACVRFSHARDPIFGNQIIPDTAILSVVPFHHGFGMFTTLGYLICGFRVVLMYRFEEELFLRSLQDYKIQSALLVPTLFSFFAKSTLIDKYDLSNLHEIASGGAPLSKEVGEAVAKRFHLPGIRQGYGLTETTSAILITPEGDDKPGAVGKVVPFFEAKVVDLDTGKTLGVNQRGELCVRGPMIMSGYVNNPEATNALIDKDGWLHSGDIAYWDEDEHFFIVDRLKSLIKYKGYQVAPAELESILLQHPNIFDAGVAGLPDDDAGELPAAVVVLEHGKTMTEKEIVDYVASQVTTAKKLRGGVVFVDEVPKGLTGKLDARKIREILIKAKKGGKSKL
- test-summary: firefly luciferase enzyme inhibitors, primary screen, biochemical, luminescence, purified enzyme, 2006 set (AID 1141);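 also: cell-free assay with purified firefly luciferase at 100 ng per well in PBS; test concentration not given here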
- assay-setup: SteadyGlo luminescence, 30 min, higher = more signal, called active from +8 up or from −8 down
measured-parameter: z-score
# answer = number (no unit)

Illustrative cases are given below, each with its answer.
compound	target-system	z-score
COc1ccc([Si](C)(C)[C@@H]2[C@@H](CC(=O)N3Cc4ccccc4C[C@H]3CO)O[C@]3(C(=O)N(C)c4ccccc43)[C@H]2C)cc1	Luciferin 4-monooxygenase (Photinus pyralis) (UniProt P08659)	-0.497
O=C1O[C@@H](c2ccccc2)[C@@H](c2ccccc2)N2[C@@H](c3ccc(OCCO)cc3)[C@]3(C(=O)Nc4ccccc43)[C@@H](C(=O)O)[C@H]12	Luciferin 4-monooxygenase (Photinus pyralis) (UniProt P08659)	-1.43
O=C1C2C=CC(C(O)c3ccccc3)N(Nc3ccccc3F)C2C(=O)N1c1ccccc1 (configuration not stated)	Luciferin 4-monooxygenase (Photinus pyralis) (UniProt P08659)	0.541
CN(C)CCCNC(=O)[C@@H]1c2ccccc2C(=O)N(Cc2ccccc2Cl)[C@H]1c1ccc(CO)cc1	Luciferin 4-monooxygenase (Photinus pyralis) (UniProt P08659)	-0.751

Record C=CCC(OC(C)=O)[C@@H]1[C@@H](N(Cc2cccc3ccccc23)C(=O)Cc2ccc(F)cc2)c2cc(OCCCO)ccc2N1C(=O)c1ccc2ccccc2n1 (some centres not stated) , field z-score: 0.0778

Record C=C[C@@H](COC(C)=O)N(C(=O)OC(C)(C)C)S(=O)(=O)c1ccc(Br)cc1 , field z-score: -0.149

Record COc1ccc(CCNC(=O)[C@@]2(Sc3ccc(C)cc3)CC(=O)N(C3Cc4ccccc4C3)[C@@H]2c2ccc(CO)cc2)cc1 , field z-score: 0.529
